Test system: A/WSN/33
experiment: microbe, parasite or virus in culture
Assay type: cell-based, influenza virus
experimental-conditions: unidentified influenza virus, WSN, A549, 24 h, read-out: WSN IC90, A549 cells, A/WSN/33 MOI 0.01, 24 h post infection, NP-positive cells
test-readout: IC90

O=C(CSc1nc2ccccc2[nH]1)NC1CCCCC1 | > 50 µM
C=CCn1c(SCC(=O)Nc2ccc(Br)cn2)nc2ccccc21 | > 50 µM

For each entry beneath this line, provide reported IC90.
1. O=C(CSc1nc2ccccc2[nH]1)NCc1ccccc1
2. CCn1c(SCC(=O)Nc2ccc(Br)cn2)nc2ccccc21
3. COc1ccc2[nH]c(SCC(=O)Nc3ccc(Br)cn3)nc2c1

Solution:
1. > 50 µM
2. > 50 µM
3. 50 µM
